Sourced from ChEMBL document CHEMBL3885881

# Organism: Rattus norvegicus
# Protocol notes: DrugMatrix - Regimen: Daily Repeat
# Type: toxicity, organism-based, Sprague-Dawley
# Parameters: regimen Daily Repeat, gender Male, age 6-8 weeks
# Condition parameters: in vivo, po, 0 mg/kg, 72 h, tissue Plasma, route oral GAVAGE, dose level Control, time 3 day, vehicle .5 % CMC
Property label: GLUCOSE (mg/dL)
API: value field is a number in mg/dL; no unit string.

input: Supply GLUCOSE value. Item: CC1CC(OC(=O)C(O)c2ccccc2)CC(C)(C)C1 (stereo unspecified) [CYCLANDELATE]
output: 173.5

input: Supply GLUCOSE value. Item: CCCN1C[C@H](CSC)C[C@@H]2c3cccc4[nH]cc(c34)C[C@H]21 [PERGOLIDE]
output: 168.83

input: Supply GLUCOSE value. Item: Nc1ccn([C@H]2CC[C@@H](CO)O2)c(=O)n1 [ZALCITABINE]
output: 140.83

input: Supply GLUCOSE value. Item: COc1nc(C)nc(Cl)c1N=C1NCCN1 [MOXONIDINE]
output: 151.67

input: Supply GLUCOSE value. Item: Cc1ccc2cc3c(ccc4ccccc43)c3c2c1CC3 [3-METHYLCHOLANTHRENE]
output: 186.83

input: Supply GLUCOSE value. Item: OCCN(CCO)c1nc(N2CCCCC2)c2nc(N(CCO)CCO)nc(N3CCCCC3)c2n1 [DIPYRIDAMOLE]
output: 173.5

----------
# Species: Rattus norvegicus
# Protocol notes: DrugMatrix - Regimen: Daily Repeat
# Assay type: toxicity, organism-based, Sprague-Dawley
# Design: regimen Daily Repeat, gender Male, age 6-8 weeks
# Condition parameters: in vivo, po, 0 mg/kg, 72 h, tissue Plasma, route oral GAVAGE, dose level Control, time 3 day, vehicle .5 % CMC
Property label: SODIUM (MEQ/L)
API: value field is a number in MEQ/L; no unit string.

input: Supply SODIUM value. Item: COc1nc(C)nc(Cl)c1N=C1NCCN1
output: 140.68

input: Supply SODIUM value. Item: CCCN1C[C@H](CSC)C[C@@H]2c3cccc4[nH]cc(c34)C[C@H]21 [PERGOLIDE]
output: 143.72

input: Supply SODIUM value. Item: ClC(Cl)Br
output: 141.2

----------
# Species: Rattus norvegicus
# Protocol notes: DrugMatrix - Regimen: Daily Repeat
# Assay type: toxicity, organism-based, Sprague-Dawley
# Set-up: regimen Daily Repeat, gender Male, age 6-8 weeks
# Condition parameters: in vivo, po, 0 mg/kg, 120 h, tissue Plasma, route oral GAVAGE, dose level Control, time 5 day, vehicle .5 % CMC
Property label: POTASSIUM (MEQ/L)
API: value field is a number in MEQ/L; no unit string.

input: Supply POTASSIUM value. Item: CCn1cc(C(=O)O)c(=O)c2cc(F)c(N3CCNCC3)cc21
output: 7.08

input: Supply POTASSIUM value. Item: CC1CC(OC(=O)C(O)c2ccccc2)CC(C)(C)C1 (stereo not drawn) [CYCLANDELATE]
output: 6.27

input: Supply POTASSIUM value. Item: CN1CCN(CCCN2c3ccccc3Sc3ccc(Cl)cc32)CC1
output: 7.03

input: Supply POTASSIUM value. Item: Nc1ccn([C@H]2CC[C@@H](CO)O2)c(=O)n1
output: 5.55

input: Supply POTASSIUM value. Item: CCOP(=S)(OCC)Oc1nc(Cl)c(Cl)cc1Cl
output: 6.65

input: Supply POTASSIUM value. Item: OCCN(CCO)c1nc(N2CCCCC2)c2nc(N(CCO)CCO)nc(N3CCCCC3)c2n1
output: 6.27

input: Supply POTASSIUM value. Item: O=C(CCCN1CC=C(n2c(=O)[nH]c3ccccc32)CC1)c1ccc(F)cc1
output: 6.47

input: Supply POTASSIUM value. Item: CCCCc1oc2ccccc2c1C(=O)c1cc(I)c(OCCN(CC)CC)c(I)c1
output: 6.18

input: Supply POTASSIUM value. Item: COc1nc(C)nc(Cl)c1N=C1NCCN1
output: 6.75

input: Supply POTASSIUM value. Item: C1CCC(C(CC2CCCCN2)C2CCCCC2)CC1 (stereo not drawn)
output: 6.98

input: Supply POTASSIUM value. Item: Cc1nc2n(c(=O)c1CCN1CCC(c3noc4cc(F)ccc34)CC1)CCCC2
output: 6.18

input: Supply POTASSIUM value. Item: NC1=NC(=O)C(c2ccccc2)O1 (stereo not drawn)
output: 6.85

input: Supply POTASSIUM value. Item: CCCN1C[C@H](CSC)C[C@@H]2c3cccc4[nH]cc(c34)C[C@H]21 [PERGOLIDE]
output: 6.49
